- targetOfAssay: Retinoic acid receptor alpha (Homo sapiens) (UniProt P10276)
- Sequence (P10276 whole entry, looked up): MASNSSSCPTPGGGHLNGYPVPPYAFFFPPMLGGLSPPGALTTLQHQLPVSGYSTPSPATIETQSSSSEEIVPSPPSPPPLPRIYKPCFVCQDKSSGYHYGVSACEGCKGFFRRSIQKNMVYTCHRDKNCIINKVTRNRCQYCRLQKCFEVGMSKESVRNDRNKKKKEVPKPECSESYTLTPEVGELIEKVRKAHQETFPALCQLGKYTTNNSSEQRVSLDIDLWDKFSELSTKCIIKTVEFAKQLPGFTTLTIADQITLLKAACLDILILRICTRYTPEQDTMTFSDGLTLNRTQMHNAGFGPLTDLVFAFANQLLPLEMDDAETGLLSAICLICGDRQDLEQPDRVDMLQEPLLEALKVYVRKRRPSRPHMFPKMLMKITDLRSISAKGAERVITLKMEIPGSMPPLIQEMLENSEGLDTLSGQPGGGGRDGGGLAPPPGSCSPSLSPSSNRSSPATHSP
- methodDescription: ATG_DR5_RAR_CIS: Attagene CIS-FACTORIAL HepG2 Assay for human Retinoic Acid Receptor Alpha (RARE), DR5 submotif (AID 2282934)
- conditionParameters: HepG2 Attagene cis-factorial RARE DR5 reporter, mRNA; actives raise or lower the signal
Activity calls are given as the source filed them. The calls were made as follows: active = hit-call score of the fitted dose curve at least 0.9, where 1 is the maximum; inactive = score below 0.9.
Field 'call' accepts active, inactive

Prompt: Call for entry Fc1ccc(C2(Cn3cncn3)OC2c2ccccc2Cl)cc1 (stereo not drawn) :
Response: inactive

Prompt: Call for entry `O=C(O)C(Cl)(Cl)Cl` :
Response: inactive

Prompt: Call for entry `CCc1ccccc1N` :
Response: inactive

Prompt: Call for entry `CCCCCCCCC(=O)NCc1ccc(O)c(OC)c1` :
Response: inactive

Prompt: Call for entry `CCCCCCCCSC(=O)Oc1cc(Cl)nnc1-c1ccccc1` :
Response: active

Prompt: Call for entry `BrCCBr` :
Response: inactive

Prompt: Call for entry `COc1ccc(OC)c(C=O)c1` :
Response: inactive

Prompt: Call for entry `COS(=O)(=O)c1ccc(C)cc1` :
Response: inactive

Prompt: Call for entry `COP(=S)(OC)Oc1cc(Cl)c(Cl)cc1Cl` :
Response: inactive

Prompt: Call for entry `CC(C)(C)c1cc(O)ccc1O` :
Response: inactive

Prompt: Call for entry CCCCC(CC)CO[N+](=O)[O-] (stereo not drawn) :
Response: active

Prompt: Call for entry `N#CCc1ccc(Cl)cc1` :
Response: inactive

Prompt: Call for entry `COc1ccc(C=O)cc1OC` :
Response: inactive

Prompt: Call for entry `COP(=S)(OC)Oc1ccc(Sc2ccc(OP(=S)(OC)OC)cc2)cc1` :
Response: inactive

Prompt: Call for entry `C=C(C)C#N` :
Response: inactive

Prompt: Call for entry `Cc1ccc(N)cc1Cl` :
Response: inactive

Prompt: Call for entry `O=C(Cc1ccccc1)c1ccccc1` :
Response: inactive

Prompt: Call for entry `C[C@]12CC[C@H](O)CC1=CC[C@@H]1[C@@H]2CC[C@]2(C)C(=O)CC[C@@H]12` :
Response: inactive

Prompt: Call for entry Clc1ccc(COC(Cn2ccnc2)c2ccc(Cl)cc2Cl)cc1 (stereo not drawn) :
Response: inactive

Prompt: Call for entry `COc1ccccc1OC` :
Response: inactive

Prompt: Call for entry `O=C(Cl)c1ccc(Cl)cc1` :
Response: inactive

Prompt: Call for entry ClC1(Cl)C2(Cl)C3(Cl)C4(Cl)C(Cl)(Cl)C5(Cl)C3(Cl)C1(Cl)C5(Cl)C24Cl (stereo not drawn) :
Response: inactive

Prompt: Call for entry `C=C(C)C(=O)[O][Sn]([CH2]CCC)([CH2]CCC)[CH2]CCC` :
Response: active

Prompt: Call for entry `Cc1ccc2ccccc2c1C` :
Response: inactive

Prompt: Call for entry `CN(C)P(=O)(N(C)C)N(C)C` :
Response: inactive

Prompt: Call for entry `N#Cc1ccccn1` :
Response: inactive

Prompt: Call for entry `N#CN=C(N)N` :
Response: inactive

Prompt: Call for entry `[O-][Cl+2]([O-])O` :
Response: inactive

This collection of values is drawn from PubChem BioAssay (EPA / NIEHS).
